experimental_target: T1, mouse CD112R-hIgG4 fusion protein (mouse; human)
T1 construct: also called soluble mouse CD112R; soluble murine CD112R
procedure_details: blocking ELISA: coated mouse CD112, antibody plus mouse CD112R-hIgG4 (2 ug/mL)
result_type: mouse CD112/CD112R blocking ELISA max inhibition (%)
Entry rule: numbers only, all in %.

Recorded mouse CD112/CD112R blocking ELISA max inhibition (%), per entry:
Antibody 46 (antibody, V domains shown, in the mouse tumor studies it was used as mouse IgG2a; also called antibody clone number 46; clone 46) VH: EVQLVESGGGLVQPGRSLRLSCTASGFTFGDYAMSWFRQAPGKGLEWVGFIGSKAYGGTTEYTASVKGRFTISRDGSKSIAYLQMNSLKTEDTAVYYCARGPRRYTYGMDVWGQGTTVTVSS VL: DIQMTQSPSSLSASVGDRVTITCRASQSISSYLNWYQQKPGKAPKLLIYAASSLQSGVPSRFSGSGSGTDFTLTISSLQPEDFATYYCQQSSTPLTFGGGTKVEIK | 88
Antibody 33 (antibody, V domains shown, Purified as IgG; compared with an IgG1 isotype control and detected with anti-human IgG Fc; also called antibody clone number 33; clone 33) VH: QVQLVQSGAEVKKPGSSVKVSCKASGGTFGNYAISWVRQAPGQGLEWMGGIIPIPGIANYAQKFQGRVTITADESTSTAYMELSSLRSEDTAVYYCARDTGRGYTRHFWFDPWGQGTLVTVSS VL: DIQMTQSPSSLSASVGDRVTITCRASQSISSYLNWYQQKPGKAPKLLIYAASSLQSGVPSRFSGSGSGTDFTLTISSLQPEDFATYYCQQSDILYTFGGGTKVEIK | 28.3
Antibody 35 (antibody, V domains shown, Purified as IgG; compared with an IgG1 isotype control and detected with anti-human IgG Fc; also called antibody clone number 35; clone 35) VH: QVQLVQSGAEVKKPGSSVKVSCKASGGTFSSAAISWVRQAPGQGLEWMGNIIPIVGIANYAQKFQGRVTITADESTSTAYMELSSLRSEDTAVYYCARDTGRGYTRHFWFDPWGQGTLVTVSS VL: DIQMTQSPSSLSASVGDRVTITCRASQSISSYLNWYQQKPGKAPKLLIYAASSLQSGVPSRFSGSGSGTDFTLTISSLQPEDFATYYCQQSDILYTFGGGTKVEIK | 24.2

Let us examine a further case.
q: Returns the measured mouse CD112/CD112R blocking ELISA max inhibition (%) for the input binder. Input: Antibody 32 (antibody, V domains shown, Purified as IgG; compared with an IgG1 isotype control and detected with anti-human IgG Fc; also called antibody clone number 32; parent clone 32) VH: QVQLVQSGAEVKKPGSSVKVSCKASGGTFSSYAISWVRQAPGQGLEWMGGIIPISGTANYAQKFQGRVTITADESTSTAYMELSSLRSEDTAVYYCARDTGRGYTRHFWFDPWGQGTLVTVSS VL: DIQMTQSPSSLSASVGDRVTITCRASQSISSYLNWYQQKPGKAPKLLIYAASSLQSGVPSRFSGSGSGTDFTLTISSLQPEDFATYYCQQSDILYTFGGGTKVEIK
a: 0
